- Method: Solubility test (supersaturated solubility by HPLC)
- Type: physicochemical
- Measurement Conditions: pH 4.0 citric acid/disodium hydrogen phosphate buffer, aqueous buffer, thermodynamic from solid, pH 4.0 citrate buffer, 37° C., shaker 100 rpm, equivalent to 10 mg olaparib in 5 ml, average of 2 runs
Measurement Name: solubility at 2 h (µg/mL)
Answer in µg/mL, number only, no unit symbol.

Query "O=C(c1cc(Cc2n[nH]c(=O)c3ccccc23)ccc1F)N1CCN(C(=O)C2CC2)CC1" yields solubility at 2 h of 118
